Data provenance: PubChem BioAssay AID2060503

# Tested on: 817829-284-R-J1-PDC complex spheroids, viability
# test_name: Anticancer human tumor 817829-284-R-J1-PDC patient-derived colon adenocarcinoma cell line growth inhibition [GQUAD]
# reported_conditions: second compound 10 µM; first compound 0.0316 µM; active compounds read low
For each of the molecules below, state its viability, T/C.
One number for each entry, in %.

// known answers, use as guide
molecule	target_system	unit_label	readout_value
C=CC(=O)N1CCN(c2nc(=O)n(-c3c(C)ccnc3C(C)C)c3nc(-c4c(O)cccc4F)c(F)cc23)C(C)C1 (stereo not given) + CN(C)c1ccc(Nc2c3ccc(NC(=O)CCN4CCCC4)cc3nc3cc(NC(=O)CCN4CCCC4)ccc23)cc1	817829-284-R-J1-PDC complex spheroids, viability	%	101
CC1COCCN1c1cc(C2(S(C)(=N)=O)CC2)nc(-c2ccnc3[nH]ccc23)n1 (stereo not given) + Cc1[nH]c2ccc(F)cc2c1-c1nc2c3cccnc3c3ncccc3c2[nH]1	817829-284-R-J1-PDC complex spheroids, viability	%	45.7
CCCS(=O)(=O)Nc1ccc(F)c(C(=O)c2c[nH]c3ncc(-c4ccc(Cl)cc4)cc23)c1F + Cc1[nH]c2ccc(F)cc2c1-c1nc2c3cccnc3c3ncccc3c2[nH]1	817829-284-R-J1-PDC complex spheroids, viability	%	67.5
O=C(c1cc(Cc2n[nH]c(=O)c3ccccc23)ccc1F)N1CCN(C(=O)C2CC2)CC1 + CN(C)c1ccc(Nc2c3ccc(NC(=O)CCN4CCCC4)cc3nc3cc(NC(=O)CCN4CCCC4)ccc23)cc1	817829-284-R-J1-PDC complex spheroids, viability	%	97.4

Which measured viability, T/C belongs to COc1cc(C2c3cc4c(cc3C(OC3OC5COC(C)OC5C(O)C3O)C3COC(=O)C23)OCO4)cc(OC)c1O (stereo not given) + CN(C)c1ccc(Nc2c3ccc(NC(=O)CCN4CCCC4)cc3nc3cc(NC(=O)CCN4CCCC4)ccc23)cc1 , tested on 817829-284-R-J1-PDC complex spheroids, viability?
86.9

====

# Test system: 817829-284-R-J1-PDC complex spheroids, viability
# test_name: Anticancer human tumor 817829-284-R-J1-PDC cell line growth inhibition [GQUAD];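 also: spheroids exposed to agents for 7 days before readout; percent viability relative to DMSO vehicle control taken as 100%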
# reported_conditions: second compound 3.16 µM; first compound 0.0316 µM; active compounds read low
# note: boundary value 90% maps to no; viability, T/C below it maps to yes

Check out these entries, answers already filled in.
compound	label
C#Cc1c(F)ccc2cc(O)cc(-c3ncc4c(N5CC6CCC(C5)N6)nc(OCC56CCCN5CC(F)C6)nc4c3F)c12 (stereo not given) + CN(C)c1ccc(Nc2c3ccc(NC(=O)CCN4CCCC4)cc3nc3cc(NC(=O)CCN4CCCC4)ccc23)cc1	no
CC(C)(O)C1CCC(Nc2ccc3ncc(-c4cccc(C(F)(F)F)c4)n3n2)CC1 (stereo not given) + CN(C)c1ccc(Nc2c3ccc(NC(=O)CCN4CCCC4)cc3nc3cc(NC(=O)CCN4CCCC4)ccc23)cc1	no

Now consider the entry below.
Is viability, T/C strictly under 90% for the entry Nc1ccn(C2OC(CO)C(O)C2(F)F)c(=O)n1 (stereo not given) + CN(C)c1ccc(Nc2c3ccc(NC(=O)CCN4CCCC4)cc3nc3cc(NC(=O)CCN4CCCC4)ccc23)cc1 ?
yes

====

# System: 817829-284-R-J1-PDC complex spheroids, viability
# test_name: Anticancer human tumor 817829-284-R-J1-PDC cell line growth inhibition [GQUAD];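 also: spheroids exposed to agents for 7 days before readout; percent viability relative to DMSO vehicle control taken as 100%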
# reported_conditions: second compound 10 µM; first compound 3.16 µM; active compounds read low
Decide using viability, T/C alone. Strictly below 3%: Met. Equal to or above 3%: Not met.

Quick check: viability, T/C of CC(=O)O[C@H]1C(=O)[C@@]2(C)[C@H]([C@H](OC(=O)c3ccccc3)[C@]3(O)C[C@H](OC(=O)[C@H](O)[C@@H](NC(=O)c4ccccc4)c4ccccc4)C(C)=C1C3(C)C)[C@]1(OC(C)=O)CO[C@@H]1C[C@@H]2O + Cc1[nH]c2ccc(F)cc2c1-c1nc2c3cccnc3c3ncccc3c2[nH]1 under 3%?
Not met

Try the molecule Cc1cccc(N(C)C(=O)C2C(O)CCN2c2nc(C)cc(C(F)(F)F)c2C#N)c1 (stereo unspecified) + CN(C)c1ccc(Nc2c3ccc(NC(=O)CCN4CCCC4)cc3nc3cc(NC(=O)CCN4CCCC4)ccc23)cc1
Not met

What about this molecule? CC1COCCN1c1cc(C2(S(C)(=N)=O)CC2)nc(-c2ccnc3[nH]ccc23)n1 (stereo unspecified) + CN(C)c1ccc(Nc2c3ccc(NC(=O)CCN4CCCC4)cc3nc3cc(NC(=O)CCN4CCCC4)ccc23)cc1
Not met

Same for Nc1ccn(C2OC(CO)C(O)C2(F)F)c(=O)n1 (stereo unspecified) + Cc1cnc(CNC(=O)c2c(=O)c3ccc(N4CCCN(C)CC4)nc3n3c2sc2ccccc23)cn1
Met

Please give the result for CC1COCCN1c1cc(C2(S(C)(=N)=O)CC2)nc(-c2ccnc3[nH]ccc23)n1 (stereo unspecified) + Cc1[nH]c2ccc(F)cc2c1-c1nc2c3cccnc3c3ncccc3c2[nH]1 too.
Not met

Also check C#Cc1c(F)ccc2cc(O)cc(-c3ncc4c(N5CC6CCC(C5)N6)nc(OCC56CCCN5CC(F)C6)nc4c3F)c12 (stereo unspecified) + Cc1[nH]c2ccc(F)cc2c1-c1nc2c3cccnc3c3ncccc3c2[nH]1
Met

Next record, please: O=c1[nH]cc(F)c(=O)[nH]1 + CN(C)c1ccc(Nc2c3ccc(NC(=O)CCN4CCCC4)cc3nc3cc(NC(=O)CCN4CCCC4)ccc23)cc1
Not met

Please do the same for Cc1cccc(N(C)C(=O)C2C(O)CCN2c2nc(C)cc(C(F)(F)F)c2C#N)c1 (stereo unspecified) + Cc1[nH]c2ccc(F)cc2c1-c1nc2c3cccnc3c3ncccc3c2[nH]1 as well.
Not met

// same read-out, input: CC1COCCN1c1cc(-c2ccnn2C)c2ccnc(-c3ccn[nH]3)c2n1 (stereo unspecified) + Cc1[nH]c2ccc(F)cc2c1-c1nc2c3cccnc3c3ncccc3c2[nH]1
Met

What would you report for CC(C)n1c(=O)n(C)c2cnc3cc(F)c(-c4ccc(OCCCN5CCCCC5)nc4)cc3c21 + Cc1[nH]c2ccc(F)cc2c1-c1nc2c3cccnc3c3ncccc3c2[nH]1 ?
Not met

Next: C=CC(=O)N1CCN(c2nc(=O)n(-c3c(C)ccnc3C(C)C)c3nc(-c4c(O)cccc4F)c(F)cc23)C(C)C1 (stereo unspecified) + Cc1[nH]c2ccc(F)cc2c1-c1nc2c3cccnc3c3ncccc3c2[nH]1
Not met
